- assay name: Dog pharmacokinetic study
- Type: in vivo, beagle dog
- condition context: plasma; beagle dog, male, 10 mg/kg, po; read-out: AUC0-24 h
Recorded measurements of AUC(0-t), one per entry
Answer as a quantity: numeral, then unit.

C=CC(=O)N1CCN(c2c(C#N)c(=O)n(-c3c(C(C)C)ncnc3C(C)C)c3nc(-c4c(N)cccc4F)c(Cl)cc23)CC1 [Amgen 6.3] ... 5.1 ng·h/mL

// switching to the query compound
According to the records, this compound C=CC(=O)N1CCN(c2c(C#N)c(=O)n(-c3c(C)ccnc3C(C)C)c3nc(-c4ccccc4F)c(Cl)cc23)CC1 [Amgen 6] displays AUC(0-t) of 2940 ng·h/mL

###

- assay name: Mouse pharmacokinetic study
- Format: in vivo, Balb/c mouse
- condition context: plasma; Balb/c mouse (female), 10 mg/kg, po
parameter measured: Cmax (ng/mL)
Please respond with the number in ng/mL and leave the unit unwritten.

// below: answered compounds
C=CC(=O)N1CCN(c2c(C#N)c(=O)n(-c3c(C)ccnc3C(C)C)c3nc(-c4ccccc4F)c(Cl)cc23)CC1 ... 901
C=CC(=O)N1CCN(c2c(C#N)c(=O)n(-c3c(C)ccnc3C(C)C)c3nc(-c4c(N)c(F)c(F)c(F)c4F)c(Cl)cc23)[C@@H](C)C1 ... 3340

According to the records, this compound "C=CC(=O)N1CCN(c2c(C#N)c(=O)n(-c3c(C(C)C)ncnc3C(C)C)c3nc(-c4c(N)cccc4F)c(Cl)cc23)CC1" displays Cmax of 1590

###

- assay name: Mouse pharmacokinetic study
- Assay type: in vivo, Balb/c mouse
- condition context: plasma; Balb/c mouse (female), 3 mg/kg, iv; read-out: Vss
Recorded measurements of Vd, one per entry
Please respond with the number in L/kg and leave the unit unwritten.

C=CC(=O)N1CCN(c2c(C#N)c(=O)n(-c3c(C(C)C)ncnc3C(C)C)c3nc(-c4c(N)cccc4F)c(Cl)cc23)CC1 [Amgen 6.3] ... 1.4
C=CC(=O)N1CCN(c2c(C#N)c(=O)n(-c3c(C)ccnc3C(C)C)c3nc(-c4c(N)c(F)c(F)c(F)c4F)c(Cl)cc23)[C@@H](C)C1 [Compound 11] ... 1

// switching to the query compound
According to the records, this compound C=CC(=O)N1CCN(c2c(C#N)c(=O)n(-c3c(C)ccnc3C(C)C)c3nc(-c4ccccc4F)c(Cl)cc23)CC1 [Amgen 6] displays Vd of 2.6

###

- assay name: Dog pharmacokinetic study
- Assay type: in vivo, beagle dog
- condition context: plasma; beagle dog, male, 1 mg/kg, iv; read-out: VSS
Recorded measurements of Vd, one per entry
Please respond with the number in L/kg and leave the unit unwritten.

C=CC(=O)N1CCN(c2c(C#N)c(=O)n(-c3c(C)ccnc3C(C)C)c3nc(-c4ccccc4F)c(Cl)cc23)CC1 [Amgen 6] ... 0.412

According to the records, this compound C=CC(=O)N1CCN(c2c(C#N)c(=O)n(-c3c(C(C)C)ncnc3C(C)C)c3nc(-c4c(N)cccc4F)c(Cl)cc23)CC1 [Amgen 6.3] displays Vd of 2.3

###

- Test system: HIS-KRAS (G12C)
- Format: biochemical
- condition context: GDP-loaded HIS-KRAS (G12C), 1 hour pre-incubation with compound, TR-FRET; read-out: SOS1 catalyzed nucleotide exchange IC50
Could you mark each record criterion met if its IC50 falls strictly under 7 nM, and criterion not met if it equals or exceeds it?

C=CC(=O)N1CCN(c2c(C#N)c(=O)n(-c3c(C)ccnc3C(C)C)c3nc(-c4c(N)c(F)c(F)c(F)c4Cl)c(Cl)cc23)C[C@H]1C (single isomer, unassigned) [Compound 10-1] ... criterion not met
C=CC(=O)N1[C@H](C)CN(c2c(C#N)c(=O)n(-c3c(C)ccnc3C(C)C)c3nc(-c4c(N)c(F)c(F)c(F)c4F)c(Cl)cc23)C[C@@H]1C (single isomer, unassigned) [Compound 13-2] ... criterion not met
C=CC(=O)N1CCN(c2c(C#N)c(=O)n(-c3c(C)ccnc3C(C)C)c3nc(-c4c(N)cccc4F)c(Cl)cc23)CC1 [Compound A, reference compound] ... criterion met
C=CC(=O)N1CCN(c2c(C#N)c(=O)n(-c3c(C)ccnc3C(C)C)c3nc(-c4c(N)c(F)c(F)c(F)c4F)c(Cl)cc23)[C@@H](C)C1 (single isomer, unassigned) [Compound 11-1] ... criterion not met

Now consider a different compound.
Request: I'd appreciate it if you could check whether C=CC(=O)N1CCN(c2c(C#N)c(=O)n(-c3c(C)ccnc3C(C)C)c3nc(-c4c(F)c(N)c(F)c(F)c4F)c(Cl)cc23)CC1 [Compound 6] has IC50 smaller than 7 nM.
Response: criterion met
